// Kd lookup, one value per entry
Biological target: T1, recombinant human Trop-2-his protein (ACCESSION NO.: NP_002344.2, AA 1-274) (human, UniProt P09758 27-274)
T1 construct: range 27-274; also called recombinant human Trop-2 protein; recombinant human Trop-2 extracellular domain; not shown: his tag
T1 sequence (looked up): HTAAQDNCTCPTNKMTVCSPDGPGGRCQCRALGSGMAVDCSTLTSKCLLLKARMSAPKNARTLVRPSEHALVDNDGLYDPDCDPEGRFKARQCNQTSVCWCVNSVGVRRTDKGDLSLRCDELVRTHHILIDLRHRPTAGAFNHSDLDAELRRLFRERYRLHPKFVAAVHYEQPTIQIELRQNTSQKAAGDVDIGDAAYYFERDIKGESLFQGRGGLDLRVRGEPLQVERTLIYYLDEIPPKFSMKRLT
Test: BLI, naked antibody on AHC sensor, Trop-2-his 60 nM, 300 s binding
Quick reminder: number only, in nM, skip the unit.

Study these solved cases before continuing.
[
  {
    "binder": "h23-12-25 (antibody, human IgG1, kappa, V domains shown, also called h32-12) VH: QVQLVQSGAEVKKPGASVKVSCKASGYTFTSYWMHWVRQAPGQGLEWMGEITPSDNYGSYNQKFKGRVTITRDTSTSTAYMELSSLRSEDTAVYYCARGHGNYVSFDYWGQGTLVTVSS VL: DIQMTQSPSSLSASVGDRVTITCRASQDISNYLNWYQQKPGKAPKLLIYYTSRLESGVPSRFSGSGSGTDFTLTISSLQPEDFATYFCQQGYTLPPYTFGQGTKLEIKR",
    "endpoint.unit": "nM",
    "result.value": 0.507
  },
  {
    "binder": "Sacituzumab (antibody, human IgG1, kappa, V domains shown, expressed in HEK293; also called control antibody Sacituzumab; Saituzumab) VH: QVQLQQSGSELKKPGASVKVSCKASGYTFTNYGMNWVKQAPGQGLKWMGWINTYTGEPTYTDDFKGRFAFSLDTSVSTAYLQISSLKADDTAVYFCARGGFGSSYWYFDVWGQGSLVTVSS VL: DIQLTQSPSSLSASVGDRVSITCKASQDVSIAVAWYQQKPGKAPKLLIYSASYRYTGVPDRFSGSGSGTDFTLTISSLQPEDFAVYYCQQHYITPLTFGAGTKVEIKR",
    "endpoint.unit": "nM",
    "result.value": 0.583
  },
  {
    "binder": "chimeric antibody ch11-4 (antibody, human IgG1, V domains shown) VH: QVQLQQPGAELVRPGASVNLSCKASGYTFTSYWINWVKQRPGQGLEWIGNIYPSNSYTNYNQKFKDTATLTVDKSSSTAYMQLSSPTSEDSAVYFCSSYRSDGFAYWGQGTLVTVSA VL: DILLTQSPAILSVSPGEKVSFSCRASQNIGTSIHWYQQRTNGSPRLLIEFASESISGIPSRFSGSGSGTDFTLTINSVESEDIADYYCQQSNSWPFTFGGGTKLEIK",
    "endpoint.unit": "nM",
    "result.value": 0.176
  }
]

Q) Any idea what Kd was measured for chimeric antibody ch4-3 (antibody, human IgG1, V domains shown) VH: QVQLQQSGPELVKPGASVKMSCKASGFTFTDYVIGWVKQRTGQGLEWIGEIYLGSGTIYYTEKFKGKATLTADTSSNTAYMQLSSLTSEDSAVYFCARGSIFPFDYWGQGTTLTVSS VL: QIVLTQSPAIMSASPGEKVTMTCSASSSVSYMYWYQQKPGSSPRLLIYDTSTLASGVPVRFSGSGSGTSYSLTISRMEAEDAATYYCQQWSSYPYTFGGGTKLEIK ?
A) 0.323
